test: yeast display, Sf9 membrane polyspecificity reagent, FACS + sequencing; frameworks hold sequencing errors

- primary.sequence: "QVQLVESGGGLVQARGSLRLSCAASGIIRSNAMGWYRQAPGKERELVAVISSSGGRTYYADSVKGRFTISRDNAKNTVYLQMTSLKPEDTAVFYCPAQVQVGAFSYYYWGQGTQVTVSS"
  polyreactivity (PSR sort gate): "high polyreactivity"
- primary.sequence: "QVQLVEAGGGLVQAGGSLRLSCAASGSTFKRYAMGWYRQAPGKERELVASISSGGSTNYADSVKGRFTISRDNAKNTVYLQMNSLKPEDTAVDYCAVSYRSFRYYWERYYSWGQGTQVTVSS"
  polyreactivity (PSR sort gate): "high polyreactivity"
- primary.sequence: "QVQLVESGGGLVQAGGSLRLSCAASGITFLHYAMGWYRQAPGQERELVAAIDYSGGSTYYADSVKGRFTISRDNAKNTVYLEMKSLKPEDTAVYYCNARVPRYNGGSTMEYWGQGTQVTVSS"
  polyreactivity (PSR sort gate): "high polyreactivity"
- primary.sequence: "QVQLVESGGGLVQAGGSLRLICAASGSIFSGYAMGWYRQAPGKERELVAAITTSGGSTYYADSVKGRFTISRENAKNTVYLPMNSLNPEDTSVYYCAAGWLYSRYARVYYWGQGTQVTLSS"
  polyreactivity (PSR sort gate): "high polyreactivity"

====

test: yeast display, Sf9 membrane polyspecificity reagent, FACS + sequencing; frameworks hold sequencing errors
recorded.metric: polyreactivity (PSR sort gate)

Would you please look over these solved cases?
- primary.sequence: "QFQLVDSGGGLVQAGASLRLSCAASGFIFEWYTIGWSREAPGTAREFVARISSDGSTTYADSVKGRFTSSRDNAKNTVYLQMNSLKPEDTAVYYCADDVSYPGQKYIFDDWGQCTQVTVSS"
  recorded.metric: "polyreactivity (PSR sort gate)"
  recorded.value: "low polyreactivity"
- primary.sequence: "QVQLVESGGGLVQAGGSLRLSCAASGRIFGVYAMGWYRQAPGKERELVAAIDSSDASTYYADSVKGRFTISRDNAKNTVYLQMNSLKPEDTAVYYCAADNPAAVYGYDYWGQGTQVTVSS"
  recorded.metric: "polyreactivity (PSR sort gate)"
  recorded.value: "low polyreactivity"
- primary.sequence: "QVQLEESGGGLVQAGCSLRLTCAASGSTFYSYPMGWSRQAPGKERELVAAITVSGTSTYYADSVKGRFTISRDNAKNTVYLQMYSVKPEDTAVYYCAADRRTDGHDYWGQGTQVTVSS"
  recorded.metric: "polyreactivity (PSR sort gate)"
  recorded.value: "high polyreactivity"
- primary.sequence: "QVQLVESGGGLVQAGGSLRLRCAASAGTFGIYSMGWYRQAPGKEREFVAAISGRGGTTYDADSVKGRFTISRDNAKYTVYLQMNSLKPVDTAVYYWATDSVNVGSNVGDKHDYWGQGTQVTVSS"
  recorded.metric: "polyreactivity (PSR sort gate)"
  recorded.value: "low polyreactivity"

# ---- query sequence ----
What the record says about QVQLVESGGGLVQAGGSLRLSCAASGSTFPNYPMGWNRQSPGKERELVAAITRSGRSTYYADSVKGRFTISRDNAKNTVYLQMNSLKPEDTGVYYCNAQHLARMDYWGQGTQVTVSS : polyreactivity (PSR sort gate) is high polyreactivity

====

assay: yeast display, Sf9 membrane polyspecificity reagent, FACS + sequencing; frameworks hold sequencing errors
recorded.metric: polyreactivity (PSR sort gate)

- primary.sequence: "QVQHVESGGGLVQAGGSLRLSCAATGRTFVYYAMGWYRQPPRKESELVASISSVGTTKYADSVKGRFTISRDNAKNTVYLQMNSLKPEDTAVYYCNNADDYSTVEFDYWGQGTQVTVSS"
  recorded.metric: "polyreactivity (PSR sort gate)"
  recorded.value: "low polyreactivity"
- primary.sequence: "QVQLVESGGGLVQAGGSLRLSCAASGSIFGVYAMGWYIPAPGTERELVAAISRGGSTNDADSVKGRFTISRDNEKNTVYLQMNSLKPEDTAVYYCNAVPVLGGYGYQWGYDYWGQGTKVTVSS"
  recorded.metric: "polyreactivity (PSR sort gate)"
  recorded.value: "low polyreactivity"
- primary.sequence: "QVQLVESGGGLVQAGGSLRLSCAASRRIFGFYAMGWYRQAPGKERELVADINWSATSTYYADSVKGRFTISRDTAKNTVYLQMNSLKPEDTAVYYCAADVSYRYYWGQGTQVTVSS"
  recorded.metric: "polyreactivity (PSR sort gate)"
  recorded.value: "low polyreactivity"
- primary.sequence: "QVQLVESGGGLVQAGGSLRLSSAASGRIFSRYAMGWYRQAPGKERELVAAITQSGTSTYYADSVKGRFTISRDNAKNTVYLQMNSLKPEDTAVYYCNAYRQYRYDYWGQGSQVTVSS"
  recorded.metric: "polyreactivity (PSR sort gate)"
  recorded.value: "low polyreactivity"
- primary.sequence: "QVQLVESGGGLVQAGGSLRLSCAASGINFDTNAIGWYRQAPGKERELVATITQRGGTTYYADSVKGRFTISRDNAKNTVYLQMNSLKPEDTAVYYCNAGPVGLPYDSWGQGTQVTVSS"
  recorded.metric: "polyreactivity (PSR sort gate)"
  recorded.value: "low polyreactivity"

What the record says about QVQLVESRGGLVQAGCSLRLSSAASGLIFYFYTMGWYRQAPGKERELVDSIRSGDSTNYADSVKGRFTISRDNAKNTVYLQMNSLKPEDTAVYYCNARYRYPYYLSVAEKYDYWGQGTQVTVSS : polyreactivity (PSR sort gate) is high polyreactivity

What the record says about QVQLVESGGGLVQAGGSLRLSCAASGTIFVAYDMGWYRQAPGKERELVAAINFDGTSTYYADSVKGRFTISRDNAKNTVYLQMNSLKPEDTAVYYCNKRVSPTYKGQYDYWGQGTQVTVSS : polyreactivity (PSR sort gate) is low polyreactivity

What the record says about QVQLHESGGGLVQAGGGLRLSCAASGSISSTGFMGWYRQAPGKEREPVAAIAPGTTTYYADSVKGRFTISRDNAKNTVYLQMNSLRPEDTAVYDCADFTDNRVAFLYWGQGTQVTVSS : polyreactivity (PSR sort gate) is low polyreactivity

====

assay: yeast display, Sf9 membrane polyspecificity reagent, FACS + sequencing; frameworks hold sequencing errors
recorded.metric: polyreactivity (PSR sort gate)

Would you please look over these solved cases?
- primary.sequence: "QVQLVESGGGLVQAGGSLRLSCAASGFTFQKYAMGWYRQAPGKERELVAAISSSGGRTYYADSVKGRFTISRDNAKNTVYLQMNSLKPEDTAVYYCNAVPGYVYDYQYWGQGTQVTVSS"
  recorded.metric: "polyreactivity (PSR sort gate)"
  recorded.value: "high polyreactivity"
- primary.sequence: "QVQLVESGGGLVHAGGSLRLSCAASGSIYPYYAMGWYRQAPGKERELVAVISRGGVRTYYADSVKGRFTISRDNAKNTVYLQMNSLKTEDTAVYYCAAGYPYGVDYWGQGTQVTVSS"
  recorded.metric: "polyreactivity (PSR sort gate)"
  recorded.value: "high polyreactivity"
- primary.sequence: "QVQLVESGGGLVQAGGSLRLSCAASGRIFISYTMGWYRQAPGKDRELVAGIDSSGTSTYYADSVKGRFTISRDNAKNTVYLQMNSLKPEDTAVYYCNVDGNWKDTSTELDYWGQGTQVTVSS"
  recorded.metric: "polyreactivity (PSR sort gate)"
  recorded.value: "low polyreactivity"
- primary.sequence: "QVQLQESVGGLVQAGGSLRLSCAASGNIFDADIMGRYRQAPGKERELVASITDGGSTNYADSVKGRFTISLDNAKNTVYLHMNSLKPEDTAVYYCAARPHRYTSRHGYWGQGTQVTVSS"
  recorded.metric: "polyreactivity (PSR sort gate)"
  recorded.value: "high polyreactivity"
- primary.sequence: "QVQLVESCGGLVQAGGSLRLSCAASGFTFYLYAMGWYRQAPGQERELVAAISSRGGTTYYADSVKGRFTISRDNAKNTVYLQMNSLKPEDTAVYYCNVARFYHIYDYWGQGTQVTVSS"
  recorded.metric: "polyreactivity (PSR sort gate)"
  recorded.value: "high polyreactivity"
- primary.sequence: "QVQLVESGGGLVQAGGSLRVSCAASGYIFTPYAMGWYRQAPGKERELVAAISSSTVRTFYADSVKGRFTISRDNAKNTVYLQMNSLKPEDTAVYYCAARGYWGQGTQVTVSS"
  recorded.metric: "polyreactivity (PSR sort gate)"
  recorded.value: "high polyreactivity"
- primary.sequence: "QVQLVETVGGLVQAGGSLRLSCAASGIIFKRYPLGGYRQAPGKERELVAAITNRGGTYYADSVKGRFTISRDNEKNSVYLQMYSLKPEDTAVYYFAARYYWIDFKFGGPRDYWGQGTQVTVSS"
  recorded.metric: "polyreactivity (PSR sort gate)"
  recorded.value: "high polyreactivity"
- primary.sequence: "QVQLVESGGGLVQAGGSLRLSCAASGFIITSYAMGWYRQAPGKERELVATISSSGGTTYYADSVKGRFTISRDTAKNTVYLQMNSLKPEDTAVYYCAKDAFGWGRVYYYRSGYWGQGTQVTVSS"
  recorded.metric: "polyreactivity (PSR sort gate)"
  recorded.value: "high polyreactivity"
- primary.sequence: "QVHLVESGGGLVQAGGSLRLSCAASGRIFYKNAMGWYRQAPGKERELVASITVGGGRTSYADSVKGRFTISRDNAKNTVYLQMNSLKPEDTAVFYCAATTGKTTFRATWYDYWGQCTQVTVSS"
  recorded.metric: "polyreactivity (PSR sort gate)"
  recorded.value: "low polyreactivity"
- primary.sequence: "QVQLVESGGGLVQAGGSLRLSCAASGSTFYRYAMGWYRQAPGKERELVAAISTRSGSTYYADSVKGRFTISRDNAKNTVYLQMNSLKPEDTAVYYCAADGHKKTARKYYYWGQGTEVTVSS"
  recorded.metric: "polyreactivity (PSR sort gate)"
  recorded.value: "low polyreactivity"

What the record says about QVQLVESGGGLVQAGGSLPLSCAASGRIFYTYAMGWYRQAPGKERELVAAITYRGGSTYYADSVKGRFTISRDNAKNTVYLQMNILIPEDTAVYYCAARPGRGPDSRWRYKYDYWGQGTQVTVSS : polyreactivity (PSR sort gate) is high polyreactivity

What the record says about QVQLVESGGGLVQAGGSLRLSCAASGRIFPSYAMGWYRQAPGKERELVATISSGGRTYYADSVKGRFTISRDNAKNTVYLQMTSLKPEDTAVYYCARRSLYHVRTQIYEYWGQGTQVTVSS : polyreactivity (PSR sort gate) is low polyreactivity

What the record says about QVQLQESGGGLVQAGGSLRLGCAASGNISDAGYMGWYRQAPGKEREFVAAIAAGSNTNYADSVKGRFTISRDNAKNTVNLQMNSLKPEDTAVFYCAVASYARVQYEYWGQGTQVTVNS : polyreactivity (PSR sort gate) is low polyreactivity

What the record says about QVQLVESGGGLVQAGGSLRLSCAASGRTFPVYAMGWYRQAPGKERELVATIRRRDGSTYADSVKGRFTISRDNAKNTVYLQMNSLKPEDTAVYYCNAAYSQATPWYYAWYDYCGQGTQVTVSS : polyreactivity (PSR sort gate) is high polyreactivity

What the record says about QVQLVESGGGLVQAGGSLRLSCAASGRIFRGYAMGWYRQAPGKEREFVDAITKNGGSTYYADSVKGRFTISRDNAKNTVYLQMNSLKPEDTAVYYCAVRAWDPYTGKSEYWGQGTQVTVSS : polyreactivity (PSR sort gate) is low polyreactivity

What the record says about QVQLVESGAGLVQAGGSLRLSCAASGYIFLRYAMGWSRQAPGKERELVAAIRGGSTNYADSVKGRFTISRDNAKNTVYLQMNSLKPEDTAVYYCAARGSKKQAYGYWGQGTQVTVSS : polyreactivity (PSR sort gate) is high polyreactivity

What the record says about QVQLVESGGGLVQAGGSLRLSCAATGFTFYKNAMGWYRQAAGKDRELVAAITRGGTTNYADSVMGRFTISRDNAKNTVYLQMNSLKEEDTAVYYCAKQGRYLTRYGYWGQGTQVTVSS : polyreactivity (PSR sort gate) is high polyreactivity

What the record says about QVQLVESGGGLVQAGGSLRLSCAACGSIVVGYAMGWYRQAPGKERELVAVITSDGSTNYADSVKGRFTISRDNAKHTVYLPMNSLKPEDTAVYYCAADPWLGTGRYDYWGQGTQVTVST : polyreactivity (PSR sort gate) is low polyreactivity

What the record says about QVQLVESGGGLVQAGGSLRLSCAASGSTIYYNAMGWYRQAPGKERELVARISRSGGSTYADSVKGRFTISRDNAKNTVYLQMNSLKPEDTAVYYCNADAYGTPEFTSYAVRYDYWGQGTQVTVSS : polyreactivity (PSR sort gate) is low polyreactivity

What the record says about QVQLVESGGGLVQPGGSLRLSWAASGSIFVGYAMGWYRQAPGKERELVAAISTRGGSTYYADSVKGRFTISRDNAKNTVYLQINSLKPEDTAVYYCAADYLDSTYGYVFGWDDYWGQGTLVTVSS : polyreactivity (PSR sort gate) is low polyreactivity

What the record says about QVQLVETGGGLVQAGVSLRLSSAASGLTYTQYALGWYRQAPGKERELVAAITSGGRRYYADSVKGRFTISRDNAKNTVYLQMNSLKPEDTAVYYCAVRGWCSARGMDYWGQGTQVTVSS : polyreactivity (PSR sort gate) is high polyreactivity

Reference source: the nanobody polyreactivity screen of Harvey et al. (2022)
